Values were extracted from PubChem BioAssay (NCI).

Form field: TGI (one value per entry).
System: SF-295 CNS
procedure_text: NCI tumour cell line growth inhibition, 48 h
Where a SMILES comes first, the peptide text is derived from it. The star is where a group is joined. Boc = CC(C)(C)OC(=O)*
property_label: TGI

> print(dat)
                                    compound   measured
 1                        CC1(O)C=CC(=O)C=C1   > 100 µM
 2  CC(C)(C)OC(=O)NC(Cc1ccc(O)cc1)C(=O)N1CCCC1C(=O)O (stereo not drawn) (Boc-Tyr-Pro-OH; configuration not given here)   > 100 µM
 3              O=c1[nH]cc(COCCCO)c(=O)[nH]1   > 100 µM
 4  CCOC(=O)/C(C=Nc1c(C)n(C)n(-c2ccccc2)c1=O)=C(/C)O   > 100 µM
 5  NC(CSC1c2ccccc2-c2ccccc21)C(=O)O (centres undefined)   > 100 µM
 6  OCC12C3C4C5C3C1C5C42 (centres undefined)   > 100 µM
 7            O=c1ssc(=Nc2ccccc2)n1-c1ccccc1   > 100 µM
 8  O=C1OC(=O)C(=C\c2ccc3c(c2)OCO3)/C1=C/c1ccc2c(c1)OCO2   > 100 µM
 9      CC(=O)Nc1ccc(SC#N)c2c(NC(C)=O)cccc12   > 100 µM
10  COC(=O)[C@@H]1[C@H](OC(C)=O)CCC2[C@@]3(C[C@@H](c4ccoc4)O[C@@H]3OC)[C@H](C)CC[C@]21C(=O)OC (some centres undefined)    > 25 µM
11  NC(=O)c1csc(C2OC(CO)C(O)C2O)n1 (centres undefined)  > 8180 µM
12  CCC(C=O)P1(=O)OC(C)(C)CN1C(C)(C)C (centres undefined)   > 100 µM
13      CC(C)(C)OC(=O)N/N=C(/N)Cc1ccc(Cl)cc1   > 100 µM
14  COc1cc(/C=C/c2nc(NC(=S)Nc3ccccc3)nnc2C)cc(OC)c1OC   > 100 µM

###

Tested on: MDA-MB-435
Labels: active, inactive

> print(dat)
                                   compound  target.system  category
1  COc1cc2c3c(n(C)c(=O)c2cc1OC)-c1cc2c(cc1/C3=C\CCCCN1C(=O)c3ccccc3C1=O)OCO2     MDA-MB-435  inactive
2  O=C(OCc1ccc2ccccc2n1)c1cn(C2CC2)c2cc(N3CCN(Cc4ccc5ccccc5n4)CC3)c(F)cc2c1=O     MDA-MB-435  inactive
3  CC(C)C[C@H](NC(=O)CNC(=O)c1cc(Cl)ccc1Cl)B1OC(=O)CC(CC(=O)O)(C(=O)O)O1 (stereo partly drawn)     MDA-MB-435    active

###

Test system: SW-620 colon
procedure_text: NCI tumour cell line growth inhibition, 48 h
Documented TGI across a set of compounds
property_label: TGI

> print(dat)
                                   compound  property.label   measured
1  Oc1ccc(-c2cc(-c3cc(-c4ccc(O)cc4)no3)on2)cc1             TGI   > 100 µM
2  O=C1NC(=O)C2C(=O)NC(=O)C1C2c1c(Cl)cccc1Cl (stereo not drawn)             TGI  > 47.1 µM
3  CC1(C)C=Cc2c(cc(O)c3c(=O)c4cc(Cl)ccc4[nH]c23)O1             TGI    > 10 µM
